Source listed as PubChem BioAssay (NCI).

Tested on: NCI-H23 lung
EXPERIMENT_NOTES: NCI tumour cell line growth inhibition, 48 h
TGI: recorded values

Before answering, review these 3 worked examples.
{"columns": ["COMPOUND", "TGI"],
 "data": [
  ["S=C(N/N=C/c1ccccn1)Nc1ccc(Cl)cc1", "> 100 µM"],
  ["CC1(c2cccc(N)c2)C2C(=O)NC(=O)C1C(=O)NC2=O (stereo unspecified)", "48.5 µM"],
  ["CSc1ccc(OCC2OC2O)cc1 (stereo unspecified)", "> 100 µM"]
]}

Q: API: value(readout= TGI, system= NCI-H23 lung, query= N#Cc1cc([N+](=O)[O-])ccc1NC(=O)C(F)(F)F )
Ans: > 100 µM

Q: API: value(readout= TGI, system= NCI-H23 lung, query= COc1cc(CNC2=NCCC2)cc(OC)c1OC )
Ans: > 100 µM

Q: API: value(readout= TGI, system= NCI-H23 lung, query= CC(=O)Oc1c2c(c(CC=C(C)C)c3c1C(=O)C1=C[C@@H]4CC5C(C)(C)OC(C/C=C(/C)C(=O)O)(C4=O)[C@@]15O3)OC(C)(CCC=C(C)C)C=C2 (stereo partly specified) )
Ans: 1.01 µM

Q: API: value(readout= TGI, system= NCI-H23 lung, query= COC(=O)C1(C(=O)OC)N=C(C)OC1c1ccccn1 (stereo unspecified) )
Ans: > 100 µM

Q: API: value(readout= TGI, system= NCI-H23 lung, query= COC(=O)C1=CC2CC1C(S(=O)(=O)c1ccccc1)C2S(=O)(=O)c1ccccc1 (stereo unspecified) )
Ans: 36.8 µM

Q: API: value(readout= TGI, system= NCI-H23 lung, query= Cc1nc2c(cc1C(=O)N/N=C/c1ccc([N+](=O)[O-])cc1)c(=O)n(C)c(=O)n2C )
Ans: > 100 µM

Q: API: value(readout= TGI, system= NCI-H23 lung, query= O=C1C(Cl)C2(CC(/C=C/c3ccccc3O)=NN2c2cccc(S(=O)(=O)O)c2)N1c1nc2ccccc2s1 (stereo unspecified) )
Ans: 33.2 µM

Q: API: value(readout= TGI, system= NCI-H23 lung, query= Cc1c(-c2ccccc2)c(C#N)c2nnn(C3CCCCC3)c(=O)n12 )
Ans: > 100 µM

Q: API: value(readout= TGI, system= NCI-H23 lung, query= CCC(C)[C@H](NC(=O)NC(=O)NC(=O)CI)C(=O)OC (stereo partly specified) )
Ans: 35.8 µM

Q: API: value(readout= TGI, system= NCI-H23 lung, query= COc1ccc2c(c1)[n+]([O-])c(-c1ccc(Br)cc1)c(N)[n+]2[O-] )
Ans: 55.3 µM

Q: API: value(readout= TGI, system= NCI-H23 lung, query= Cc1cc(C)c2c(c1)C1=NCCN1C2(O)c1ccc(Cl)cc1 (stereo unspecified) )
Ans: 33.1 µM

Q: API: value(readout= TGI, system= NCI-H23 lung, query= COC(=O)NN1C(C)=C(C(=O)OC)C2(C#N)C(C(=O)OC)=C(C)N(NC(=O)OC)C12N (stereo unspecified) )
Ans: > 100 µM

Q: API: value(readout= TGI, system= NCI-H23 lung, query= COc1ccc2c(c1)C1OCCNC1CC2 (stereo unspecified) )
Ans: > 100 µM

Q: API: value(readout= TGI, system= NCI-H23 lung, query= CCOC(=O)NC(C(=O)OCC)(N1CCN(c2cc3c(cc2F)c(=O)c(C(=O)O)cn3CC)CC1)C(F)(F)F (stereo unspecified) )
Ans: > 100 µM

Q: API: value(readout= TGI, system= NCI-H23 lung, query= COC(=O)C1=Cc2cc(OC)c(OC)cc2[C@H](c2ccc(OC)c(OC)c2)C1C(=O)OC (stereo partly specified) )
Ans: > 100 µM

Q: API: value(readout= TGI, system= NCI-H23 lung, query= CC(=O)OC1CC2(C)OC(Cc3ccccc32)O1 (stereo unspecified) )
Ans: > 100 µM

Q: API: value(readout= TGI, system= NCI-H23 lung, query= C[C@]12CC[C@H]3[C@@H](CCC4=CC(=O)CC[C@@]43C)[C@@H]1CC[C@@H]2C(=O)COS(=O)(=O)c1ccc(Br)cc1 )
Ans: 8.62 µM

Q: API: value(readout= TGI, system= NCI-H23 lung, query= Cc1ccc(Nc2[nH]c(=O)[nH]c(=O)c2C)cc1Cl )
Ans: > 100 µM

---

Test system: HCT-116 colon
EXPERIMENT_NOTES: NCI tumour cell line growth inhibition, 48 h
REPORTED_PROPERTY: TGI (µM)
Number only, in µM; omit the unit.

Before answering, review these 3 worked examples.
{"columns": ["COMPOUND", "TGI [µM]"],
 "data": [
  ["CCCCCCCCCCC/C=C\\C[C@H](O)C/C=C1/C(=O)C=C[C@@H]1C/C=C\\CCCC(=O)OC", 1.83],
  ["CC(C)(CCN=C(N)Nc1ccccn1)c1ccc(C(F)(F)F)cc1", 24.3],
  ["CC(=O)Oc1c2c(c(CC=C(C)C)c3c1C(=O)C1=C[C@@H]4CC5C(C)(C)OC(C/C=C(/C)C(=O)O)(C4=O)[C@@]15O3)OC(C)(CCC=C(C)C)C=C2 (stereo partly drawn)", 0.316]
]}

// switching to the query compound
Q: API: value(readout= TGI, system= HCT-116 colon, query= O=c1c2c(c3ccccc3n1-c1ccccc1)NC(=S)NC2c1ccc(Cl)cc1 (stereo not drawn) )
Ans: 7.32

---

System: SK-MEL-2 melanoma
EXPERIMENT_NOTES: NCI tumour cell line growth inhibition, 48 h
REPORTED_PROPERTY: log10 of TGI (log10 of the value in µM)
Scale: decimal log of TGI, TGI in µM.

Before answering, review these 5 worked examples.
{"columns": ["COMPOUND", "ASSAY_SYSTEM", "REPORTED_PROPERTY", "OBSERVED_VALUE"],
 "data": [
  ["O=C1C(=O)c2ccccc2C(O)=C1CCCc1ccc(C2CCCC2)cc1", "SK-MEL-2 melanoma", "log10 of TGI", 1.51],
  ["CCN(Cc1ccccc1Cl)c1ccc(CO)c(Cl)c1", "SK-MEL-2 melanoma", "log10 of TGI", 1.21],
  ["CCC12CCCNC1c1c(n(C)c3ccccc13)C(C(=O)OC)C2 (configuration not stated)", "SK-MEL-2 melanoma", "log10 of TGI", 2.41],
  ["c1ccc(Nc2nc(-c3ccccn3)cs2)nc1", "SK-MEL-2 melanoma", "log10 of TGI", 1.48],
  ["Cc1cc(C)c2c(c1)C1=NCCN1C2(O)c1ccc(Cl)cc1 (configuration not stated)", "SK-MEL-2 melanoma", "log10 of TGI", 1.54]
]}

Q: Would you mind telling me what log10 of TGI value was observed for O=C(/C=C/c1ccccc1Cl)c1cccc2ccccc12 ?
Ans: 1.55

Q: Would you mind telling me what log10 of TGI value was observed for CC(C)=CCC1=C(OCC(=O)O)C(=O)c2ccccc2C1=O ?
Ans: 1.93

Q: Would you mind telling me what log10 of TGI value was observed for CC(C)(CCN=C(N)Nc1ccccn1)c1ccc(C(F)(F)F)cc1 ?
Ans: 1.52

Q: Would you mind telling me what log10 of TGI value was observed for CCCCCc1cc[n+](CC(=O)c2ccc([N+](=O)[O-])cc2)cc1 ?
Ans: 0.94

Q: Would you mind telling me what log10 of TGI value was observed for CC(=O)[CH-]C(=O)c1ccccc1.CC(=O)[CH-]C(=O)c1ccccc1.CC1(C)OCC(C2OC3OC(C)(C)OC3C2[O-])O1.CC1(C)OCC(C2OC3OC(C)(C)OC3C2[O-])O1.[Ti+4] (configuration not stated) ?
Ans: 1.41

---

Test system: SK-OV-3 ovarian
EXPERIMENT_NOTES: NCI tumour cell line growth inhibition, 48 h
TGI: recorded values

{"columns": ["COMPOUND", "TGI"],
 "data": [
  ["Clc1nc(Cl)c2c3c(sc2n1)CCCC3", "> 100 µM"],
  ["CSCC[C@H](NC(=O)[C@H](CC(C)C)NC(=O)[C@@H](Cc1ccccc1)NC(=O)CNC(=O)[C@@H](NC(=O)[C@H](C)NC(=O)[C@H](Cc1c[nH]c2ccccc12)NC(=O)[C@H](CCC(N)=O)NC(=O)[C@H](N)CC(N)=O)C(C)C)C(N)=O", "> 12.5 µM"],
  ["Cn1cc(-c2csc(-c3cn(CCCCN4CCCCC4)c4ccc(F)cc34)n2)c2cccnc21", "32.7 µM"],
  ["NC1(C(=O)O)CCc2ccc(N(CCCl)CCCl)cc2C1 (stereo not given)", "> 100 µM"]
]}

// switching to the query compound
Q: Would you mind telling me what TGI value was observed for CNc1cc2nc3cc(NC)c(C)cc3cc2cc1C ?
Ans: 12.8 µM
